experiment: Oral bioavailability in IGS rat at 3 mg/kg administered as single dose
Assay type: ADME, organism-based
test-context: in vivo
readout-kind: bioavailability (%)
Numeric only. Scale: %

Measured bioavailability, `CN(C)CCn1c(CC(C)(C)C)nc2cc(S(=O)(=O)C3CN(CCO)C3)ccc21` : 20

----------
experiment: Volume of distribution at steady state in Beagle Marshall dog at 1 mg/kg administered as single dose
Assay type: ADME, organism-based, Canis lupus familiaris
Set-up: dose 1 mg/kg
test-context: in vivo, read-out: Vdss
readout-kind: Vd (L/kg)
Numeric only. Scale: L/kg

Measured Vd, `CN(C)CCn1c(CC(C)(C)C)nc2cc(S(=O)(=O)C3CN(CCO)C3)ccc21` : 5.69

----------
experiment: Cmax in rat at 300 mg/kg, po
Format: ADME, organism-based
Set-up: dose 300 mg/kg, route oral
test-context: in vivo
readout-kind: Cmax (ng/mL)
Numeric only. Scale: ng/mL

Measured Cmax, `CN(C)CCn1c(CC(C)(C)C)nc2cc(S(=O)(=O)C3CN(CCO)C3)ccc21` : 1800

----------
experiment: Effective permeability by PAMPA method
Type: ADME
test-context: read-out: Peff
readout-kind: Papp (×10⁻⁶ cm/s)
Numeric only. Scale: ×10⁻⁶ cm/s

Below, 2 compounds whose answers are already recorded.
entry_smiles=CN(C)CCn1c(CC(C)(C)C)nc2cc(S(=O)(=O)C3CN(S(C)(=O)=O)C3)ccc21 experimental_value=5.9
entry_smiles=CN(C)CCn1c(CC(C)(C)C)nc2cc(S(=O)(=O)C3CN(C(N)=O)C3)ccc21 experimental_value=0.6

Measured Papp, `CCN1CC(S(=O)(=O)c2ccc3c(c2)nc(CC(C)(C)C)n3CCN(C)C)C1` : 10

Measured Papp, `CN(C)CCn1c(CC(C)(C)C)nc2cc(S(=O)(=O)C3CN(CC(F)(F)F)C3)ccc21` : 18

Measured Papp, `CN(C)CCn1c(CC(C)(C)C)nc2cc(S(=O)(=O)C3CN(C)C3)ccc21` : 7.8

Measured Papp, `CN(C)CCn1c(CC(C)(C)C)nc2cc(S(=O)(=O)C3CN(CCO)C3)ccc21` : 1.5
